Target: IRAK4 (Homo sapiens, UniProt Q9NWZ3)
Construct: endogenous in cells; host or cells: OCI-LY10
Sequence (Q9NWZ3 whole entry): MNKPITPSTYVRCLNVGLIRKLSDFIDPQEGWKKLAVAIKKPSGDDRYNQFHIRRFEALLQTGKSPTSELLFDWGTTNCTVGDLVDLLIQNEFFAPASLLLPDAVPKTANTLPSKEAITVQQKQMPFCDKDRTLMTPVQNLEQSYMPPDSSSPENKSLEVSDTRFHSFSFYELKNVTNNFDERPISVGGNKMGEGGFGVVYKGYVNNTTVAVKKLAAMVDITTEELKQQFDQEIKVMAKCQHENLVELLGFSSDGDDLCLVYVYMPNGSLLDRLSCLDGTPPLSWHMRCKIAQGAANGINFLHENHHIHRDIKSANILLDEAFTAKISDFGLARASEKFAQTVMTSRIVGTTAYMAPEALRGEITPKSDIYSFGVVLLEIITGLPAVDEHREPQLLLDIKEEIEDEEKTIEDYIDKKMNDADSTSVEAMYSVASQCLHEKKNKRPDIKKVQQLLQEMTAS
Assay: IRAK4 MSD degradation in OCI-LY10
Format: cell-based
Conditions: OCI-LY10 cells, 24 hrs, Meso Scale Discovery
test-readout: DC50

1. Cn1c(=O)n(C2CCC(=O)NC2=O)c2cccc([C@@H]3CCN(C[C@H]4CC[C@H](c5nc6cc(C(C)(C)O)c(NC(=O)c7ccnc(C(F)(F)F)n7)cc6s5)CC4)C[C@H]3F)c21 (some centres unmarked) [I-170] : < 0.01 µM
2. CN(C[C@H]1CC[C@H](c2cn3cc(NC(=O)c4cncc(C(F)(F)F)n4)ccc3n2)CC1)[C@@H]1CCN(c2cccc3c2n(C)c(=O)n3C2CCC(=O)NC2=O)C[C@H]1F (single isomer, unassigned) [I-293] : 0.01 to 0.1 µM
3. Cn1c(NC(=O)c2cccc(C(F)(F)F)n2)cc2cn([C@H]3CC[C@H](CN4CC[C@@H](c5cccc6c5n(C)c(=O)n6C5CCC(=O)NC5=O)C(F)(F)C4)CC3)nc2c1=O (some centres unmarked) [I-39] : > 0.2 µM
4. O=C1CCC(Nc2cccc(N3CC(CN4CCN(C[C@H]5CC[C@H](n6cc(NC(=O)c7cnn8ccc(N9C[C@H]%10C[C@@H]9CO%10)nc78)c(C(F)F)n6)CC5)CC4)C3)c2)C(=O)N1 (some centres unmarked) [I-13] : 0.01 to 0.1 µM

Record lookup: for IRAK4 (Homo sapiens, UniProt Q9NWZ3), what DC50 belongs to Cn1c(=O)n(C2CCC(=O)NC2=O)c2cccc([C@@H]3CCN(C[C@H]4CC[C@H](n5cc6cc(NC(=O)c7cncc(C(F)(F)F)n7)c(C#N)cc6n5)CC4)C[C@H]3F)c21 (some centres unmarked) [I-172] ?
< 0.01 µM

* * *

Molecular target: IRAK4 (Homo sapiens, UniProt Q9NWZ3)
Construct: endogenous in cells; host or cells: OCI-LY10
Assay: IRAK4 MSD degradation in OCI-LY10
Format: cell-based
Settings: OCI-LY10 cells, 24 hrs, Meso Scale Discovery
DC50 values, listed per item

1. Cn1c(=O)n(C2CCC(=O)NC2=O)c2cccc(N3CC(COC[C@H]4CC[C@H](n5cc6cc(NC(=O)c7cccc(C(F)(F)F)c7)ncc6n5)CC4)C3)c21 (stereo partly shown) [I-269] : > 0.2 µM
2. CN(C[C@H]1CC[C@H](c2nc3cc(C(C)(C)O)c(NC(=O)c4cccc(C(F)(F)F)c4)cc3s2)CC1)[C@H]1CCN(c2cccc3c2n(C)c(=O)n3C2CCC(=O)NC2=O)C[C@H]1F (single isomer, unassigned) [I-199] : 0.01 to 0.1 µM

Need DC50 of COc1ccc2c(c1N1CC3(CCN(C[C@H]4CC[C@H](n5cc6cc(NC(=O)c7cncc(C#N)c7)c(C(C)(C)O)cc6n5)CC4)CC3(F)F)C1)n(C)c(=O)n2[C@H]1CCC(=O)NC1=O (single isomer, unassigned) [I-234] , thanks.
< 0.01 µM

Similarly, COc1cc2nn([C@H]3CC[C@H](CN(C)[C@@H]4CCN(c5cccc6c5n(C)c(=O)n6C5CCC(=O)NC5=O)C[C@H]4F)CC3)cc2cc1NC(=O)c1cccc(C(F)(F)F)n1 (stereo partly shown) [I-90] ?
< 0.01 µM

Continue with Cn1c(=O)n(C2CCC(=O)NC2=O)c2cccc([C@@H]3CCN(C[C@H]4CC[C@H](n5cc(NC(=O)c6cnn7ccc(N8C[C@H]9C[C@@H]8CO9)nc67)c(C(F)F)n5)CC4)C[C@H]3F)c21 (single isomer, unassigned) [I-329]
< 0.01 µM

Ok, now CN(C[C@H]1CC[C@H](n2cc3cc(NC(=O)c4cccc(C(F)(F)F)n4)ncc3n2)CC1)[C@H]1CCN(c2cccc3c2n(C)c(=O)n3C2CCC(=O)NC2=O)C[C@H]1F (stereo partly shown) [I-34]
< 0.01 µM

Here is the next compound: CN(C[C@H]1CC[C@H](n2cc(NC(=O)c3cnn4cccnc34)c(C(F)F)n2)CC1)[C@@H]1CCN(c2cccc3c2n(C)c(=O)n3C2CCC(=O)NC2=O)C[C@H]1F (single isomer, unassigned) [I-279]
< 0.01 µM

How about this compound: Cc1nn(C2CCC(=O)NC2=O)c2cccc([C@@H]3CCN(C[C@H]4CC[C@H](n5cc6cc(NC(=O)c7cncc(C(F)(F)F)n7)ncc6n5)CC4)C[C@H]3F)c12 (single isomer, unassigned) [I-340]
0.01 to 0.1 µM

Queued: CN(C[C@H]1CC[C@H](c2nc3cc(C(C)(C)O)c(NC(=O)c4cccc(C(F)(F)F)n4)cc3s2)CC1)[C@@H]1CCN(c2cccc3c2n(C)c(=O)n3C2CCC(=O)NC2=O)C[C@@H]1F (single isomer, unassigned) [I-104]
< 0.01 µM

Another compound: COc1ccc2c(c1N1CC[C@@H](N(C)C[C@H]3CC[C@H](n4cc(NC(=O)c5cnn6cccnc56)c(C(F)F)n4)CC3)[C@@H](F)C1)n(C)c(=O)n2C1CCC(=O)NC1=O (single isomer, unassigned) [I-153]
< 0.01 µM

What do we get for Cc1nn(C2CCC(=O)NC2=O)c2cccc(N3CCC4(CCN(C[C@H]5CC[C@H](n6cc7cc(NC(=O)c8cncc(C#N)c8)c(C(C)(C)O)cc7n6)CC5)CC4(F)F)CC3)c12 (stereo partly shown) [I-312] ?
0.01 to 0.1 µM
